The measurements presented in this section are drawn from patent US10947252B2.

Kelch domain of human KEAP1 (321-624 aa) (Homo sapiens (Human)) measurements of Kd, listed per entry.
Sequence (Q14145 321-624): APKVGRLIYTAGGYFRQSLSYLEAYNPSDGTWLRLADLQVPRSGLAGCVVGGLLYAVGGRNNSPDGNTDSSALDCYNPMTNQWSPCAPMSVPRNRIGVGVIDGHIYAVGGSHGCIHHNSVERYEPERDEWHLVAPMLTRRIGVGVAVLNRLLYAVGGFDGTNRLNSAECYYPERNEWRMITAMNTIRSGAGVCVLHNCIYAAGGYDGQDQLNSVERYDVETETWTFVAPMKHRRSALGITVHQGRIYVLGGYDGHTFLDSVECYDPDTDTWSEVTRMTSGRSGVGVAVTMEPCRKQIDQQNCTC
Numbers only here, please. The scale is nM.

Which measured Kd belongs to Cc1ccc([C@@H](CC(=O)O)c2ccn3c(C(F)(F)F)nnc3c2C)cc1CN1C[C@@H]2CCCN2c2ccccc2S1(=O)=O (single isomer, unassigned) , tested on Kelch domain of human KEAP1 (321-624 aa) (Homo sapiens (Human))?
8.69

Further cases:
Which measured Kd belongs to Cc1ccc([C@@H](CC(=O)O)c2ccn3c(C(F)(F)F)nnc3c2C)cc1CN1CC2(CC2)Oc2ncccc2S1(=O)=O (single isomer, unassigned) , tested on Kelch domain of human KEAP1 (321-624 aa) (Homo sapiens (Human))?;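 also: Ligand-induced melting temperature shift of E. coli-expressed KEAP1 Kelch protein, Kd estimated from concentration-response curves of ΔTm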
0.188
